test system: CAKI-1 renal; assay: NCI tumour cell line growth inhibition, 48 h
# Lookup of reported TGI keyed by entry

Take a look at these entries with their results.
Task: Request body: readout TGI, system CAKI-1 renal, query N#C/C(=C\c1cc(O)cc(O)c1)C(N)=O . Return the value.
Result: > 100 µM

Task: What measured TGI is associated with C=CCN(c1cc(OC)c(NC(C)=O)cc1[N+](=O)[O-])S(C)(=O)=O on CAKI-1 renal?
Result: > 100 µM

Task: Notebook: pull reported TGI for CAKI-1 renal, entry COC1/C=C(C)/C=C/C(C)/C=C/C(=O)OC(/C(C)=C/C=C(\C)CNC(=O)[C@H](CO)NC=O)C(C)/C=C/C=C/C(OC)CC/C=C(C)/C=C/C1 (stereo not given in full)
Result: > 0.397 µM

Continuing:
Task: Notebook entry, CAKI-1 renal assay: TGI of COc1ccc(/C=C\c2cc(OC)c(OC)c(OC)c2)cc1OCC(=O)Nc1nc2ccc(F)cc2s1 = ?
Result: > 100 µM

Task: What reported TGI corresponds to C=C(CCCCC)CN1CCCC1C(C)=O (stereo not given) on CAKI-1 renal?
Result: > 92.3 µM
